Origin of values: paper PMC12040169

List of viability at 28.5 h, 10 µM values.
experiment.description: in vitro
measurement.conditions: human, hela cells, % viability
State just the number; it will be interpreted in %.

Some compounds with known viability at 28.5 h, 10 µM results, for comparison:
# compound, viability at 28.5 h, 10 µM / %
measured = [
    ("COc1cnc(-c2ccccc2OC)c(NC(C)=O)n1", 89.1),
    ("CC(=O)NCCSc1nc2ccccc2nc1C(F)(F)F", 89.6),
    ("CCOC(=O)CSc1nc2ccc(I)cc2c(=O)n1Cc1ccccc1", 107),
    ("CN(Cc1ccccc1N1CCCC1)C(=O)Cc1cn2ccsc2n1", 78),
]

Here is another compound to look at.
What the record says about COCC(C)NC(=O)Cn1c(-c2cccs2)cc2cccnc21 (centres unmarked) : viability at 28.5 h, 10 µM is 81.8
